# credit: patent US20220017572A1

# system-name: dengue 2 protease (Dengue virus type 2)
# Construct: The active site of the dengue protease is in the N-terminal part of NS3
# test-details: Dengue 2 protease inhibition, hydrolysis of Z-RR-MCA
pKi: −log10 of the molar value. Residues, ends and D or L forms follow the SMILES beside them.
measurement-type: pKi

[[record]]
compound = "CCCCCCCCCCCCCCCCNC(=O)[C@H](CCCCN)NC(=O)[C@H](C)NC(=O)[C@H](C)NC(=O)[C@H](C)NC(=O)[C@H](CCCCN)NC(=O)CCCCCCCCCCCCCCC [C16-KAAAK-C16] (HELM PEPTIDE1{[CCCCCCCCCCCCCCCC(=O)[*:2]].K.A.A.A.K.[CCCCCCCCCCCCCCCCN[*:1]]}$$$$V2.0)"
system_name = "dengue 2 protease (Dengue virus type 2)"
measurement_type = "pKi"
measured = 5.85

[[record]]
compound = "CCCCCCCCCCCCCCCCNC(=O)[C@H](CCCCN)NC(=O)[C@H](C)NC(=O)[C@H](C)NC(=O)[C@H](CCCCN)NC(=O)CCCCCCCCCCCCCCC [C16-KAAK-C16] (HELM PEPTIDE1{[CCCCCCCCCCCCCCCC(=O)[*:2]].K.A.A.K.[CCCCCCCCCCCCCCCCN[*:1]]}$$$$V2.0)"
system_name = "dengue 2 protease (Dengue virus type 2)"
measurement_type = "pKi"
measured = 6.20

[[record]]
compound = "CCCCCCCCCCCCNC(=O)[C@H](CCCCN)NC(=O)[C@H](CCCCN)NC(=O)CCCCCCCCCCC [C12KKC12, n-C11H23C(O)-Lys-Lys-(n-C12H25).2TFA]"
system_name = "dengue 2 protease (Dengue virus type 2)"
measurement_type = "pKi"
measured = 3.88

[[record]]
compound = "CCCCCCCCCCCCCCCCNC(=O)[C@H](CCCCN)NC(=O)[C@H](C)NC(=O)[C@H](CCCCN)NC(=O)CCCCCCCCCCCCCCC"
system_name = "dengue 2 protease (Dengue virus type 2)"
measurement_type = "pKi"
measured = 6.43

[[record]]
compound = "CCCCCCCCCCCCCCCCNC(=O)[C@H](CCCNC(=N)N)NC(=O)[C@H](C)NC(=O)[C@H](C)NC(=O)[C@H](CCCNC(=N)N)NC(=O)CCCCCCCCCCCCCCC [C16RA2RC16] (HELM PEPTIDE1{[CCCCCCCCCCCCCCCC(=O)[*:2]].R.A.A.R.[CCCCCCCCCCCCCCCCN[*:1]]}$$$$V2.0)"
system_name = "dengue 2 protease (Dengue virus type 2)"
measurement_type = "pKi"
measured = 5.68


* * *

As shown below, each of these molecules has a reported Activity with inhibitors value.
# system-name: dengue 2 protease (Dengue virus type 2, UniProt P14340)
# Construct: The active site of the dengue protease is in the N-terminal part of NS3
# Sequence (P14340 1476-1653): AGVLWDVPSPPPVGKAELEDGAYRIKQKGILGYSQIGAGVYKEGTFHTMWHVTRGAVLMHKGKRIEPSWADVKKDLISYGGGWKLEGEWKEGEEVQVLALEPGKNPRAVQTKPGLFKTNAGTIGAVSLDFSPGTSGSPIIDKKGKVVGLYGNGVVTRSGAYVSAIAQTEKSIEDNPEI
# test-details: Dengue 2 protease inhibition, hydrolysis of Z-RR-MCA
# Type: biochemical, dengue 2 virus
# Design: unit not given here
# measurement-context: 20 μM of inhibitor; 10 μM Z-RR-MCA, pH 9.0, 37° C.; initial activity in UAF/min
Residues, ends and D or L forms follow the SMILES beside them.
measurement-type: Activity with inhibitors

[[record]]
molecule = "CCCCCCCCCCCCNC(=O)[C@H](CCCCN)NC(=O)[C@H](C)NC(=O)[C@H](C)NC(=O)[C@H](CCCCN)NC(=O)CCCCCCCCCCC [C12KA2KC12] (HELM PEPTIDE1{[CCCCCCCCCCCC(=O)[*:2]].K.A.A.K.[CCCCCCCCCCCCN[*:1]]}$$$$V2.0)"
system_name = "dengue 2 protease (Dengue virus type 2, UniProt P14340)"
measurement_type = "Activity with inhibitors"
measured = 5

[[record]]
molecule = "CCCCCCCCCCCCCCCCNC(=O)[C@H](CCCNC(=N)N)NC(=O)[C@H](C)NC(=O)[C@H](C)NC(=O)[C@H](C)NC(=O)[C@H](C)NC(=O)[C@H](CCCNC(=N)N)NC(=O)CCCCCCCCCCCCCCC [C16RA4RC16] (HELM PEPTIDE1{[CCCCCCCCCCCCCCCC(=O)[*:2]].R.A.A.A.A.R.[CCCCCCCCCCCCCCCCN[*:1]]}$$$$V2.0)"
system_name = "dengue 2 protease (Dengue virus type 2, UniProt P14340)"
measurement_type = "Activity with inhibitors"
measured = 22

[[record]]
molecule = "CCCCCCCCCCCCCCCCNC(=O)[C@H](CCCNC(=N)N)NC(=O)[C@H](CCCNC(=N)N)NC(=O)CCCCCCCCCCCCCCC [C16RRC16, n-C15H31C(O)-Arg-Arg-(n-C16H33).2TFA]"
system_name = "dengue 2 protease (Dengue virus type 2, UniProt P14340)"
measurement_type = "Activity with inhibitors"
measured = 48

[[record]]
molecule = "CCCCCCCCCCCCCCCCNC(=O)[C@H](CCCCN)NC(=O)[C@H](C)NC(=O)[C@H](C)NC(=O)[C@H](C)NC(=O)[C@H](C)NC(=O)[C@H](CCCCN)NC(=O)CCCCCCCCCCCCCCC [C16-KAAAAK-C16] (HELM PEPTIDE1{[CCCCCCCCCCCCCCCC(=O)[*:2]].K.A.A.A.A.K.[CCCCCCCCCCCCCCCCN[*:1]]}$$$$V2.0)"
system_name = "dengue 2 protease (Dengue virus type 2, UniProt P14340)"
measurement_type = "Activity with inhibitors"
measured = 47


* * *

# system-name: trypsin (Bos taurus, UniProt P00760)
# Construct: gene PRSS1
# Sequence (P00760 24-246): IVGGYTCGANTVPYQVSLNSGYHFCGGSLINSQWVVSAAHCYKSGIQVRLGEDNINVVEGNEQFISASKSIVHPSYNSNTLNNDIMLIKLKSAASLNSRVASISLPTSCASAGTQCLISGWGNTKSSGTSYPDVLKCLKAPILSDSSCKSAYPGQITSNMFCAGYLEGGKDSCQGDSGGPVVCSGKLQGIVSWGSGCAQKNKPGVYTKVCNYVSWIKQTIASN
# test-details: Trypsin inhibition, fluorimetric enzyme assay
# Format: biochemical
# measurement-context: 40 μM inhibitor, 36.5° C.; read-out: Residual Activity (%) Trypsin
Residues, ends and D or L forms follow the SMILES beside them.
measurement-type: remaining activity at 40 µM (%)

[[record]]
molecule = "CCCCCCCCCCCCCCCCNC(=O)[C@H](CCCCN)NC(=O)[C@H](C)NC(=O)[C@H](CCCCN)NC(=O)CCCCCCCCCCCCCCC"
measurement_type = "remaining activity at 40 µM"
measured = 35

[[record]]
molecule = "CCCCCCCCCCCCCCCCNC(=O)[C@H](CCCCN)NC(=O)[C@H](C)NC(=O)[C@H](C)NC(=O)[C@H](C)NC(=O)[C@H](CCCCN)NC(=O)CCCCCCCCCCCCCCC [C16-KAAAK-C16] (HELM PEPTIDE1{[CCCCCCCCCCCCCCCC(=O)[*:2]].K.A.A.A.K.[CCCCCCCCCCCCCCCCN[*:1]]}$$$$V2.0)"
measurement_type = "remaining activity at 40 µM"
measured = 54

[[record]]
molecule = "CCCCCCCCCCCCCCCCNC(=O)[C@H](CCCCN)NC(=O)[C@H](C)NC(=O)[C@H](C)NC(=O)[C@H](CCCCN)NC(=O)CCCCCCCCCCCCCCC [C16-KAAK-C16] (HELM PEPTIDE1{[CCCCCCCCCCCCCCCC(=O)[*:2]].K.A.A.K.[CCCCCCCCCCCCCCCCN[*:1]]}$$$$V2.0)"
measurement_type = "remaining activity at 40 µM"
measured = 20

[[record]]
molecule = "CCCCCCCCCCCCCCCCNC(=O)[C@H](CCCCN)NC(=O)[C@H](C)NC(=O)[C@H](C)NC(=O)[C@H](C)NC(=O)[C@H](C)NC(=O)[C@H](CCCCN)NC(=O)CCCCCCCCCCCCCCC [C16-KAAAAK-C16] (HELM PEPTIDE1{[CCCCCCCCCCCCCCCC(=O)[*:2]].K.A.A.A.A.K.[CCCCCCCCCCCCCCCCN[*:1]]}$$$$V2.0)"
measurement_type = "remaining activity at 40 µM"
measured = 35


* * *

As shown below, each of these compounds has a reported activity at 15 µM value.
# system-name: human furin (Homo sapiens)
# Sequence (P09958 108-794): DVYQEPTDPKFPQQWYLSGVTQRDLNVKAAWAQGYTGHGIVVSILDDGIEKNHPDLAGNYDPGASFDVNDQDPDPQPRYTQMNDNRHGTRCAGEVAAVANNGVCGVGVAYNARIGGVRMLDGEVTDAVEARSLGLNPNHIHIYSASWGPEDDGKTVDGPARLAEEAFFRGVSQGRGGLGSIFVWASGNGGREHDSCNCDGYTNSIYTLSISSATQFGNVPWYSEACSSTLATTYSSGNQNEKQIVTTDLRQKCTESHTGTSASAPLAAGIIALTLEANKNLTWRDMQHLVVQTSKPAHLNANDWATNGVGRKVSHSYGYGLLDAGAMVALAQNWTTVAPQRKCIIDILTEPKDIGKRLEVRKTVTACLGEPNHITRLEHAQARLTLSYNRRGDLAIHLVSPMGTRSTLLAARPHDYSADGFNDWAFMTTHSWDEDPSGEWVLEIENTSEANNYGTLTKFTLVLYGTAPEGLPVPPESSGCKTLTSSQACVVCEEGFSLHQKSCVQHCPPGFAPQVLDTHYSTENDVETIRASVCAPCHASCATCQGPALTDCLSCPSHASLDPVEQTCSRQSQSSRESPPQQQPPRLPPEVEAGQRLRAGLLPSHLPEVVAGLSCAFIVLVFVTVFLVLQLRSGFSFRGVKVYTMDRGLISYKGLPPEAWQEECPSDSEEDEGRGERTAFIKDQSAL
# test-details: Human furin inhibition, hydrolysis of Ac-RVRR-MCA
# Type: biochemical
# measurement-context: 15 μM inhibitor, 36.5° C.
Residues, ends and D or L forms follow the SMILES beside them.
measurement-type: activity at 15 µM

[[record]]
compound = "CCCCCCCCCCCCCCCCNC(=O)[C@H](CCCCN)NC(=O)[C@H](C)NC(=O)[C@H](C)NC(=O)[C@H](CCCCN)NC(=O)CCCCCCCCCCCCCCC [C16-KAAK-C16] (HELM PEPTIDE1{[CCCCCCCCCCCCCCCC(=O)[*:2]].K.A.A.K.[CCCCCCCCCCCCCCCCN[*:1]]}$$$$V2.0)"
measurement_type = "activity at 15 µM"
measured = "69%"

[[record]]
compound = "CCCCCCCCCCCCCCCCNC(=O)[C@H](CCCCN)NC(=O)[C@H](C)NC(=O)[C@H](C)NC(=O)[C@H](C)NC(=O)[C@H](CCCCN)NC(=O)CCCCCCCCCCCCCCC [C16-KAAAK-C16] (HELM PEPTIDE1{[CCCCCCCCCCCCCCCC(=O)[*:2]].K.A.A.A.K.[CCCCCCCCCCCCCCCCN[*:1]]}$$$$V2.0)"
measurement_type = "activity at 15 µM"
measured = "10%"

[[record]]
compound = "CCCCCCCCCCCCCCCCNC(=O)[C@H](CCCCN)NC(=O)[C@H](C)NC(=O)[C@H](C)NC(=O)[C@H](C)NC(=O)[C@H](C)NC(=O)[C@H](CCCCN)NC(=O)CCCCCCCCCCCCCCC [C16-KAAAAK-C16] (HELM PEPTIDE1{[CCCCCCCCCCCCCCCC(=O)[*:2]].K.A.A.A.A.K.[CCCCCCCCCCCCCCCCN[*:1]]}$$$$V2.0)"
measurement_type = "activity at 15 µM"
measured = "45%"

